Tested on: K562/A02
Assay: Antiproliferative activity against human K562/A02 cells overexpressing P-gp by MTT assay
Type: functional, cell-based
Measure Name: pIC50
One number for each entry, as −log10 of the molar value.

Solved cases (3 shown):
1) COc1ccccc1/C(=N/NC(=S)NCCCCCC(=O)NO)c1ccccc1 | 5.54
2) O=C(CCCCCNC(=S)N/N=C(\c1ccccc1)c1ccccc1[N+](=O)[O-])NO | 5.88
3) C/C(=N\NC(=S)NCCCCCC(=O)NO)c1ccc(F)cc1 | 5.99

Okay, now this compound:
Query block: Specify reported pIC50 for the compound shown: Cc1ccc(/C(=N/NC(=S)NCCCCCC(=O)NO)c2ccccc2)cc1
Result block: 5.50

* * *

Experiment: Resistance index, ratio of IC50 for human K562/A02 cells to IC50 for human K562 cells
Assay type: functional
Set-up: reference not given here
Measure Name: Ratio IC50

1. Cc1ccc(/C(=N/NC(=S)NCCCCCC(=O)NO)c2ccccc2)cc1 | 0.73

Hi! Can you tell me Ratio IC50 for each of these compounds?
1. COc1cccc2c1C(=O)c1c(O)c3c(c(O)c1C2=O)C[C@@](O)(C(=O)CO)C[C@@H]3O[C@H]1C[C@H](N)[C@H](O)[C@H](C)O1.Cl [DOXORUBICIN HYDROCHLORIDE]
2. O=C(CCCCCNC(=S)NN=C(c1ccccn1)c1ccccn1)NO
3. O=C(CCCCCNC(=S)NN=C(c1ccccc1)c1ccccc1)NO

Result block:
[28.21, 0.76, 0.96]

* * *

For each of the molecules below, state its pIC50.
System: K562/A02
Assay: Antiproliferative activity against human K562/A02 cells overexpressing P-gp by MTT assay
Type: functional, cell-based
One number for each entry, as −log10 of the molar value.

1) O=C(CCCCCNC(=S)NN=C(c1ccccc1)c1ccccc1)NO | 5.44
2) C/C(=N\NC(=S)NCCCCCC(=O)NO)c1cccc(C(F)(F)F)c1 | 6.05
3) O=C(CCCCCNC(=S)NN=C(c1ccccn1)c1ccccn1)NO | 5.66

Go through the items and report each one's pIC50.
1. Cc1ccccc1/C(=N/NC(=S)NCCCCCC(=O)NO)c1ccccc1
2. O=C(CCCCCNC(=S)N/N=C(\c1ccccc1)c1ccccc1F)NO
3. C/C(=N\NC(=S)NCCCCCC(=O)NO)c1cccc(C)c1
4. O=C(CCCCCCC(=O)Nc1ccccc1)NO
5. CN(C)C(=S)NN=C(c1ccccn1)c1ccccn1
6. COc1cccc(/C(C)=N/NC(=S)NCCCCCC(=O)NO)c1

Result block:
5.37
5.22
5.45
5.50
5.52
5.72

* * *

Tested on: K562/A02
Assay: Antiproliferative activity against human K562/A02 cells overexpressing P-gp by MTT assay
Format: functional, cell-based
Measure Name: IC50 (nM)
Numbers only, in nM.

Consider the reported IC50 for these compounds:
1. O=C(CCCCCNC(=S)N/N=C(\c1ccccc1)c1ccc([N+](=O)[O-])cc1)NO | 4530
2. COc1cccc2c1C(=O)c1c(O)c3c(c(O)c1C2=O)C[C@@](O)(C(=O)CO)C[C@@H]3O[C@H]1C[C@H](N)[C@H](O)[C@H](C)O1.Cl [DOXORUBICIN HYDROCHLORIDE] | 23400
3. O=C(CCCCCNC(=S)N/N=C(\c1ccccc1)c1cccc([N+](=O)[O-])c1)NO | 940
4. O=C(CCCCCNC(=S)N/N=C(\c1ccccc1)c1ccccn1)NO | 2030
5. Cc1ccc(NC(=O)c2ccc(CN3CCN(C)CC3)cc2)cc1Nc1nccc(-c2cccnc2)n1 [IMATINIB] | 980
6. C/C(=N\NC(=S)NCCCCCC(=O)NO)c1cccc(Br)c1 | 520

Query block: Give IC50; test system K562/A02; compound C/C(=N\NC(=S)NCCCCCC(=O)NO)c1ccc(Br)cc1
Result block: 440
